ASSAYED_TARGET: T1, EsCas13d, nuclease-dead (Eubacterium siraeum, UniProt B0MS50, R295A;H300A;R849A;H854A)
T1 sequence: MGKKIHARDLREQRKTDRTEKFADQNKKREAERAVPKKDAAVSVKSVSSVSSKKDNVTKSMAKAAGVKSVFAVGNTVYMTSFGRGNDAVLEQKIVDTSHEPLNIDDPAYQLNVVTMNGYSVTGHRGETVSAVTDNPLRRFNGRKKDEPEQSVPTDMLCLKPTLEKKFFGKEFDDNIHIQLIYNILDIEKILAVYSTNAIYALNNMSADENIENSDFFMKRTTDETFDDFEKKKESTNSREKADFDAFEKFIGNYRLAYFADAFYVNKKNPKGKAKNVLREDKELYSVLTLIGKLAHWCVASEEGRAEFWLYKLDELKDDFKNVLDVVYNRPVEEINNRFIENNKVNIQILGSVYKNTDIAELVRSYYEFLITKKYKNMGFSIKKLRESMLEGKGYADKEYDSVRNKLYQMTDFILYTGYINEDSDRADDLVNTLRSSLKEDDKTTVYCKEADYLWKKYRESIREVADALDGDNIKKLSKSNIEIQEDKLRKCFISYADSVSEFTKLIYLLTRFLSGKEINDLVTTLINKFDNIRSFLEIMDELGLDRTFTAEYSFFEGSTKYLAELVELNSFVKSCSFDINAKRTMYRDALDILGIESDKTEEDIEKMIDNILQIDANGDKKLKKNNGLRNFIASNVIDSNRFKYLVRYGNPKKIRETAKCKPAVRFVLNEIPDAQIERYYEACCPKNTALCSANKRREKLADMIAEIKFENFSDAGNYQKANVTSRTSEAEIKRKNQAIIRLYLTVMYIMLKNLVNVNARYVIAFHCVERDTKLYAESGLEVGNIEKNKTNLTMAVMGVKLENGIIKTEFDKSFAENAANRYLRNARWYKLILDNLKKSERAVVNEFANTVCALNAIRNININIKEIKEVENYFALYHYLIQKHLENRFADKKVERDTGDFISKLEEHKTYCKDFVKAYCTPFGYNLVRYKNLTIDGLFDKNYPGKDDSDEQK
TEST_DETAILS: crRNA (strand 1, pre-loaded); Mg2+; 40 mM Tris-HCl pH 7.5, 150 mM NaCl, 6 mM MgCl2, 1 mM DTT, 0.1% Tween-20, 0.2 mg/ml BSA; 25 C; 10 min per concentration, then washed
EXPERIMENTAL_CONTEXT: tags: His6-TwinStrep-SUMO cleaved; N-terminal SNAP kept (SNAP-Surface 488); label: 3' end held by stalled T7 RNA polymerase
Catalogue of Kd values
The figure you give is taken to be in nM; do not add the unit.

Would you please look over these solved cases?
- BINDER: "target 1 A9U,U19G (mixed) RNA 1: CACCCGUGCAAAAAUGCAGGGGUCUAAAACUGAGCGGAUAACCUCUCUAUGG RNA 2: GGGAAUGGAUCCACAUCUACGAAUUCGUACCAGAGAGAGGUUUUCCGCUCACCGAGAUCGGAAGAGCACACGU"
  RECORDED_VALUE: 72
- BINDER: "target 1 U10C,C21A (mixed) RNA 1: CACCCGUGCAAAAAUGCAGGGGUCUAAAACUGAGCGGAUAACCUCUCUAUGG RNA 2: GGGAAUGGAUCCACAUCUACGAAUUCGUACAAUAGAGAGGUCAUCCGCUCACCGAGAUCGGAAGAGCACACGU"
  RECORDED_VALUE: 60

// moving on: another record for Kd
Look at this binder and give its reported Kd. target 1 insC 3' of 20,insU 3' of 2 (mixed) RNA 1: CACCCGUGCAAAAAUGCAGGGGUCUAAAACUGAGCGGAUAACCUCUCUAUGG RNA 2: GGGAAUGGAUCCACAUCUACGAAUUCGUACCACUAGAGAGGUUAUCCGCUCUACCGAGAUCGGAAGAGCACACGU
14.7
